- target_of_assay: UniProt P57789
- Sequence (P57789 whole entry): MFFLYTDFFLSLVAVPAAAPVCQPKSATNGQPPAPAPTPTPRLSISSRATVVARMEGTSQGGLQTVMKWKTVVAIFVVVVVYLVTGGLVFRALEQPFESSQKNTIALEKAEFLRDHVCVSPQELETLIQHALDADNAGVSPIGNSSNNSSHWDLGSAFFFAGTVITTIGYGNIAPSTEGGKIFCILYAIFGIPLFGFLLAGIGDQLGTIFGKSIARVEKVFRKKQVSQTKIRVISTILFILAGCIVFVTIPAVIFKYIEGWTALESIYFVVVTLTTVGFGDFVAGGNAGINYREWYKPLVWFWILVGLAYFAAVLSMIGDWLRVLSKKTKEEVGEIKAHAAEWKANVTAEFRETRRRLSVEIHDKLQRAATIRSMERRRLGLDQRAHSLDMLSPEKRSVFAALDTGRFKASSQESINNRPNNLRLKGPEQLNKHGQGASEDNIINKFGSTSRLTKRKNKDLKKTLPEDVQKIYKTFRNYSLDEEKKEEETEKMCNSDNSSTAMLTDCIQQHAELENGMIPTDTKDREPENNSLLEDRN
- procedure_details: Activation of K2P10.1 (unknown origin) expressed in Xenopus oocytes assessed as effect on channel currents at -80 mV holding potential by two-electrode voltage clamp assay
pEC50: −log10 of the molar value.
reported_endpoint: pEC50

Lookup: pEC50 / UniProt P57789 / `O=C(O)CCn1c2ccc(Cl)cc2c2cc(Cl)ccc21`
≤ 3.60

* * *

Would you kindly list Activity for each of these molecules?
- target_of_assay: Potassium channel subfamily K member 2 (Homo sapiens)
- procedure_details: Activation of K2P2.1 (unknown origin) expressed in Xenopus oocytes assessed as effect on channel currents at 50 uM at -80 mV holding potential by two-electrode voltage clamp assay relative to control
- Type: cell-based
Numbers only; they are read as %.

Requested read-out: Activity. Entry: `Brc1ccc2c3ccc(Br)cc3n(CCc3nnn[nH]3)c2c1`
13.4

Requested read-out: Activity. Entry: `CC1(C)c2ccccc2N(CCc2nnn[nH]2)c2ccccc21`
29.2

Requested read-out: Activity. Entry: `O=C(O)CCN1c2ccc(Cl)cc2C2(CCCCC2)c2cccc(Cl)c21`
57.7

Requested read-out: Activity. Entry: O=C(O)CCC(CN1c2ccc(Br)cc2C2(CCCCC2)c2cc(Br)ccc21)C(=O)O (centres undefined)
45
